methodSummary: Stability in liver microsomes, dog
Entry flag: true (1) if Trep Concentration 60 min reaches 0.7 µM; false (0) if it does not.

compound: CCCCCC(CCC1C(O)CC2Cc3c(cccc3OCC(=O)O)CC21)OC(=O)c1ccc(C(F)(F)F)cc1 (centres unmarked)
labelClass: false (0)

compound: CCCCCC(CCC1C(O)CC2Cc3c(cccc3OCC(=O)O)CC21)OC(=O)C(C)C (centres unmarked)
labelClass: true (1)

compound: CCCCCC1CCC2C(CC3Cc4c(cccc4OCC(=O)O)CC32)OP(=O)(Oc2ccccc2)O1 (mixture of isomers)
labelClass: false (0)

compound: CCCCCC(CCC1C(O)CC2Cc3c(cccc3OCC(=O)O)CC21)OCOC(=O)C(C)(C)C (centres unmarked)
labelClass: true (1)

compound: CCCCCC(CCC1C(O)CC2Cc3c(cccc3OCC(=O)O)CC21)OC (centres unmarked)
labelClass: false (0)

compound: CCCCCC(CCC1C(O)CC2Cc3c(cccc3OCC(=O)O)CC21)OC(C)=O (centres unmarked)
labelClass: true (1)

compound: CCCCCC(O)CCC1C(OC)CC2Cc3c(cccc3OCC(=O)O)CC21 (centres unmarked)
labelClass: false (0)

compound: CCCCCC(CCC1C(O)CC2Cc3c(cccc3OCC(=O)O)CC21)OC(=O)CCC(=O)N1CCOCC1 (centres unmarked)
labelClass: false (0)

compound: CCCCCC(CCC1C(O)CC2Cc3c(cccc3OCC(=O)O)CC21)OC(=O)COc1ccc(O)cc1 (centres unmarked)
labelClass: true (1)

compound: CCCCCC(CCC1C(O)CC2Cc3c(cccc3OCC(=O)O)CC21)OC(=O)COc1ccc(OC(F)(F)F)cc1 (centres unmarked)
labelClass: false (0)

These data points were gathered from patent US12491170B2.
